B1: Hairpin Ribozyme (parent)
chain: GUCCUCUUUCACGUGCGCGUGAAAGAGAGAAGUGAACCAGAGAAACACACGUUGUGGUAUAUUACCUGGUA

Variants of: B1
Experiment: self-cleavage, relative activity (ratio to wild type); higher = more cleavage; co-transcriptional
Consider the following variants; for each one, report its self-cleavage.

Exercise: Which self-cleavage is reported for this variant? C46G C48U
Solution: 0.156

Exercise: Moving on to U55A U62C
Solution: 0.229

Exercise: Moving on to C18G A43U
Solution: 0.0776

Exercise: Moving on to A31G C37A
Solution: 0.158

Exercise: Moving on to U5A A47U
Solution: 0.0694

Exercise: Moving on to U5C A43G
Solution: 0.201

Exercise: Moving on to C3G A22C
Solution: 0.227

Exercise: Moving on to A45U A64C
Solution: 0.18

Exercise: Moving on to C12U A45G
Solution: 0.162

Exercise: Moving on to U9C A23U
Solution: 0.528

Exercise: Moving on to A61G U67A
Solution: 0.328

Ref: the RNAGym collection of RNA variant scans (doi:10.7554/elife.80360)
